# ASSAY_TARGET: plasma kallikrein (Homo sapiens)
# Construct: PFR-AMC substrate
# Sequence (P03952 20-638): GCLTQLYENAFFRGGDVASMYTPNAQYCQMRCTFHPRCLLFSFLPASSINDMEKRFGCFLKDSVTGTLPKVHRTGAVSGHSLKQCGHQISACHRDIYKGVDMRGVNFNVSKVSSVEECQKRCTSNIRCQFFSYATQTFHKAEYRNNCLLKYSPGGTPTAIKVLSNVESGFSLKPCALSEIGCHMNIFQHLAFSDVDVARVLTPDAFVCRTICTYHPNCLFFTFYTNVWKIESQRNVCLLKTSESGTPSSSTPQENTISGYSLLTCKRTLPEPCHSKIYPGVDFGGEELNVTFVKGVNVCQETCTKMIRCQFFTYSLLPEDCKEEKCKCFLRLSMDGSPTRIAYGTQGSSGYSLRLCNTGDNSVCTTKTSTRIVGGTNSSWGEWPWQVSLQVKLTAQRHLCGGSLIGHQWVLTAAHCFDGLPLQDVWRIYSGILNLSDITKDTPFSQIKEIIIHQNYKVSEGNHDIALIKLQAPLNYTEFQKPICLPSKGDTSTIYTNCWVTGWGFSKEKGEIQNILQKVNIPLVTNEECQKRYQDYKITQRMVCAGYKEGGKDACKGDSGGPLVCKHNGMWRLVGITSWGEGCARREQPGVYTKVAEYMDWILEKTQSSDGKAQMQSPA
# PROTOCOL_TEXT: Neat Human Plasma Assay (Fluorogenic Peptide), contact pathway-activated (FXIIa) plasma
# Type: biochemical
# TEST_CONTEXT: human citrated plasma 78% final; 10 nM human FXIIa; PFR-AMC substrate; 5 minutes; room temperature
ASSAY_ENDPOINT: IC90

Missing value: IC90, plasma kallikrein (Homo sapiens), entry "Cc1cc2c(N)nccc2c(C)c1CNc1cc(OCc2cn3cc(C4CC4)cc(C4(F)COC4)c3n2)ncn1" . Fill in?
1000 to 5000 nM

Try "Cc1cc2c(N)nccc2c(C)c1CNc1cc(OCc2cc3cc(C4CC4)cc(CCC(C)(C)O)n3n2)ncn1" next.
> 5000 nM

What do you get for "Cc1cc2c(N)nccc2c(C)c1CNC(=O)c1cn(Cc2ccc(N3CCCC3)nc2)nc1C(F)(F)F" ?
> 5000 nM

Same again, this time with "Cc1c(CNc2cc(OCc3cn4cc(C5CC5)ccc4n3)ncn2)c(C2(C)CC2)cc2c(N)nccc12"
> 5000 nM

Now give it for "Cc1cc2c(N)nccc2c(C)c1CNc1cc2c(cn1)cnn2Cc1cn2cc(C3CC3)ccc2n1" too.
≤ 1000 nM

And for "Cc1cc2c(N)nccc2c(C)c1CNc1ncncc1NCc1cn2cc(C3CC3)ccc2n1" ?
> 5000 nM

For "Cc1cc2c(N)nccc2c(C)c1CNc1cc2c(cn1)ncn2Cc1cn2cc(C3CC3)ccc2n1" then?
≤ 1000 nM

// next record "Cc1cc2c(N)nccc2c(C)c1CNc1cc2c(ccn2Cc2ccc(Cn3cccn3)cc2)nn1"
≤ 1000 nM

Next compound: "Cc1cc2c(N)nccc2c(C)c1CNc1cc(OCc2cn3cc(C4CC4)cc(N4CCCC4=O)c3n2)ncn1"
≤ 1000 nM

Repeat for the following compound: "Cc1cc2c(N)nccc2c(C)c1CNc1nccc2nc(Cc3cn4cc(C5CC5)ccc4n3)[nH]c12"
> 5000 nM

Field entry: "Cc1cc2c(N)nccc2c(C)c1CNc1cc(NCc2ccc(Cn3ccccc3=O)cc2)cnn1"
≤ 1000 nM

Param item: "Cc1cc2c(N)nccc2c(C)c1CNc1cc(OCc2cn3cc(C4CC4)ccc3n2)ccn1"
> 5000 nM

// same read-out, input: "Cc1cc2c(N)nccc2c(C)c1CNc1cc2c(cn1)ncn2Cc1nc2ccc(C3CC3)cn2n1"
≤ 1000 nM

Then what about the compound "Cc1cc2c(N)nccc2c(C)c1CNc1cc(OCc2nc3ccc(C4CC4)cn3n2)ncn1" ?
> 5000 nM

// same read-out, input: "Cc1ccc2cc(Cn3ccc4nnc(NCc5c(C)cc6c(N)nccc6c5C)cc43)ccc2n1"
1000 to 5000 nM

Now give it for "Cc1cc2c(N)nccc2c(C)c1CNc1cc(OCc2cn3cc(C4CC4)cnc3n2)ncn1" too.
≤ 1000 nM
